Biological target: T1, HER2 on the surface of HER2+ cancer cells (BT474, SKOV-3) (human, UniProt P04626 23-1255)
T1 construct: whole, on cells; also called human epidermal growth factor receptor 2
Assay: flow cytometry on BT-474 cells (HER2+), 100 nM binding sites
property measured: FITC+ (%)
Reply numerically in %, unit not repeated.

Consider the binder shown here: F4 anti-HER2 VHH (VHH) VHH: QVQLQESGGGLVQAGGSLKLSCAASGRTLSAYVVGWFRQAPGKERESVAAIGWSSRSPYYPDSVKGRFTISEDNTKNTVYLQMNSLKPDDTAVYYCAADSYPRRWDRESDFGSWGQGTQVTVSS What is its recorded FITC+ (%)?
98.5

Requested read-out: FITC+ (%). Entry: E5 anti-HER2 VHH (VHH, also called E5 clone) VHH: QVQLQESGGGLVQAGGSLRLDCAASGRTLSSYVVGWFRQAPGKEREVVAAIGWSRTSTFYTDSVKGRFTISRDNTENTVYLQMNSLKPGDTAVYYCAADSSPRRWDRESDFGSWGQGTQVTVSS
98.4

Value lookup for FITC+ (%); key = A1 anti-HER2 VHH (VHH, Llama VHH expressed in WK6 E. coli with C-terminal c-myc and His tags; also called A1 clone) VHH: QVQLQESGGGLVQPGGSLRLSCAASGHTLSTYVVAWFRQAPGKERESVAAIGWSSRSPYYPDSVKGRFTISEDNTKNTVYLQMNSLKPDDTAVYYCAADSYPRRWDRESDFGSWGQGTQVTVSS
98.8

Record request: FITC+ (%) value, item E9 anti-HER2 VHH (VHH) VHH: QVQLQESGGGSVQAGGSLKLSCAASGRTLSAYVVGWFRQAPGRERESVAAIGWSTHSVYYADSVKGRFTISRDNTENTVYLQMNSLKPDDTAVYYCAADSSPRRWDRESDFGSWGQGTQVTVSS
98.2
